The origin of these recorded values is patent US20050182242A1.

system: PI(4)P liposomes; assay: Yeast proteome chip probed with PI(4)P liposomes; conditions: liposome binding signal on yeast proteome chip, Cy3-streptavidin detection
I'd appreciate it if you marked entries class 1 when PI(4)P is lower than 60 and class 0 when it is not.

[in] Check if PI(4)P falls below 60 for APS2: yeast GST-HisX6 fusion protein on proteome chip (protein, UniProt Q00381 1-147, looked up, GST-HisX6 tag, yeast GST-HisX6 fusion protein on proteome chip) AP-2 complex subunit sigma: MAVQFILCFNKQGVVRLVRWFDVHSSDPQRSQDAIAQIYRLISSRDHKHQSNFVEFSDSTKLIYRRYAGLYFVMGVDLLDDEPIYLCHIHLFVEVLDAFFGNVCELDIVFNFYKVYMIMDEMFIGGEIQEISKDMLLERLSILDRLD .
[out] class 0

[in] API: query returns whether the molecule falls strictly under 60 in PI(4)P. Query: ARP10: yeast GST-HisX6 fusion protein on proteome chip (protein, UniProt Q04549 1-284, looked up, GST-HisX6 tag, yeast GST-HisX6 fusion protein on proteome chip) Actin-like protein ARP10: MSNTIVIVYLGANRIEIGRSADACPQEIIAWKTGSINEKNREELKKIFEHYFQICNILGNREVQVLILEDIFISVVEKRIICSILFKEFDCAHVSFVPRAIVHCLSCNTRNAIVIDIGTNYTTCVPIFDLRPLQQFIKYSKRGKRQVESRIPLPGSLYMPIFFDEEYNSKNCEVDETPVINLVKNIVESLPIDLRRPLRENIIIVNIEEAYETVIRNLFKLKMDTSKIQFPKNYWQAGSACAKILLHYKGSNIVGIERDEFYNNPHIAPDWFDYYFRTGVKRLQ
[out] class 0

[in] I'd appreciate it if you could check whether YER046W: yeast GST-HisX6 fusion protein on proteome chip (protein, UniProt P40031 1-143, looked up, GST-His6 tag, yeast GST-HisX6 fusion protein on proteome chip) Sporulation-specific protein …: MGKNHFLKDFSALPEDVLIENERGITLLGYPLFSPKILLPHVDPPQFQRLNTENGSLIALSKNTISNFIELYPIDLSTERTAGSSSSQMTKWFVLMDYKEKYDIDDQGWCYSWNFNNSRWKSKNGLVRRRVWVRLPTTSHGLD has PI(4)P smaller than 60.
[out] class 1

[in] Lab log: compare recorded PI(4)P with 60; is it strictly lower for RPL9B: yeast GST-HisX6 fusion protein on proteome chip (protein, UniProt P51401 1-191, looked up, GST-HisX6 tag, yeast GST-HisX6 fusion protein on proteome chip) Large ribosomal subunit …: MKYIQTEQQIEIPEGVTVSIKSRIVKVVGPRGTLTKNLKHIDVTFTKVNNQLIKVAVHNGDRKHVAALRTVKSLVDNMITGVTKGYKYKMRYVYAHFPINVNIVEKDGAKFIEVRNFLGDKKIRNVPVRDGVTIEFSTNVKDEIVLSGNSVEDVSQNAADLQQICRVRNKDIRKFLDGIYVSHKGFIVEDM ?
[out] class 1

[in] is_below(PI(4)P, 60) for MET8: yeast GST-HisX6 fusion protein on proteome chip (protein, left off: a dimerising Fc or GST, yeast GST-HisX6 fusion protein on proteome chip) MVKSLQLAHQLKDKKILLIGGGEVGLTRLYKLIPTGCKLTLVSPDLHKSIIPKFGKFIQNEDQPDYREDAKRFINPNWDPTKNEIYEYIRSDFKDEYLDLEDENDAWYIIMTCIPDHPESARIYHLCKERFGKQQLVNVADKPDLCDFYFGANLEIGDRLQILISTNGLSPRFGALVRDEIRNLFTQMGDLALEDAVVKLGELRRGIRLLAPDDKDVKYRMDWARRCTDLFGIQHCHNIDVKRLLDLFKVMFQEQNCSLQFPPRERLLSEYCSS ?
[out] class 0

[in] Given FRM2: yeast GST-HisX6 fusion protein on proteome chip (protein, UniProt P37261 1-193, looked up, GST-His6 fusion tag, yeast GST-HisX6 fusion protein on proteome chip) nitroreductase FRM2: MSPTGNYLNAITNRRTIYNLKPELPQGVGLDDVKRTVHVILKNTPTAFNSQVNRAVIIVGDTHKRIWDAVASAMPTAEAKKRPESCRDEAYGSVIFFTDEGPTEKLQRDFPALAAAFPTCAAHTTGAVQIQSWTALELLGLGANLQHYNDYVKSALPQDVPIAWTVQSQLVFGVPTALPEEKTFINNVINVYH , is recorded PI(4)P strictly lower than 60?
[out] class 1

[in] Please indicate whether the reported PI(4)P of PEX4: yeast GST-HisX6 fusion protein on proteome chip (protein, UniProt P29340 1-183, looked up, GST-His6 tag, yeast GST-HisX6 fusion protein on proteome chip) Ubiquitin-conjugating enzyme …: MPNFWILENRRSYTSDTCMSRIVKEYKVILKTLASDDPIANPYRGIIESLNPIDETDLSKWEAIISGPSDTPYENHQFRILIEVPSSYPMNPPKISFMQNNILHCNVKSATGEICLNILKPEEWTPVWDLLHCVHAVWRLLREPVCDSPLDVDIGNIIRCGDMSAYQGIVKYFLAERERINNH is strictly below 60.
[out] class 1

[in] Regarding GFD1: yeast GST-HisX6 fusion protein on proteome chip (protein, UniProt Q04839 1-188, looked up, GST-His6 tag, yeast GST-HisX6 fusion protein on proteome chip) mRNA transport factor GFD1: MPLESIWADAPDEEPIKKQKPSHKRSNNNKKNNNSRWSNESSSNNKKKDSVNKVKNNKGNHESKTKNKIKETLPREKKPPHSQGKISPVSESLAINPFSQKATEISPPPVSPSKMKTTKTQSKQDTASKMKLLKKKIEEQREILQKTHHKNQQQQVLMDFLNDEGSSNWVDDDEEELILQRLKTSLKI , kindly confirm whether its PI(4)P is beneath 60.
[out] class 1
